Activity for assorted compounds
- TEST METHOD NOTES: Cell cycle arrest in mouse B16F10 cells assessed as accumulation at S phase at cytotoxic IC50 after 72 hrs by propidium iodide staining based flow cytometry (reference value: 48.31 +/- 0.74%)
- Assay type: functional, B16-F10
Value expressed in %; do not type the unit.

// worked examples, Activity included
1) COCCOCCOCC(=O)O[C@H]1CC[C@]2(C)[C@H]3CC=C4[C@@H]5CC(C)(C)CC[C@]5(C(=O)O)CC[C@@]4(C)[C@]3(C)CC[C@H]2C1(C)C :: 25.44
2) CC1(C)CC[C@]2(C(=O)NCCCOCCOCCOCCCN)CC[C@]3(C)C(=CC[C@@H]4[C@@]5(C)C[C@@H](O)[C@H](O)C(C)(C)[C@@H]5CC[C@]43C)[C@@H]2C1 :: 22.44

### Prompt Give its Activity value. Item: CC1(C)CC[C@]2(C(=O)NCCCOCCOCCOCCCN)CC[C@]3(C)C(=CC[C@@H]4[C@@]5(C)CC[C@H](O)C(C)(C)[C@@H]5CC[C@]43C)[C@@H]2C1
### Response 31.33

### Prompt Give its Activity value. Item: COCCOCCOCC(=O)O[C@@H]1C[C@]2(C)[C@H]3CC=C4[C@@H]5CC(C)(C)CC[C@]5(C(=O)O)CC[C@@]4(C)[C@]3(C)CC[C@H]2C(C)(C)[C@H]1OC(=O)COCCOCCOC
### Response 12.07

### Prompt Give its Activity value. Item: COCCOCCOCC(=O)O[C@@H]1C[C@]2(C)[C@H]3CC=C4[C@@H]5CC(C)(C)CC[C@]5(C(=O)OCc5ccccc5)CC[C@@]4(C)[C@]3(C)CC[C@H]2C(C)(C)[C@H]1OC(=O)COCCOCCOC
### Response 13.13

----------
- TEST METHOD NOTES: Induction of apoptosis in mouse B16F10 cells assessed as early apoptotic cells at cytotoxic IC50 after 72 hrs by Annexin V-FITC/propidium iodide staining based flow cytometry (reference value: 0.75 +/- 0.07%)
- Type: functional, B16-F10
Field: label. Allowed values: Criterion met (Activity < 30%) or Criterion not met (Activity >= 30%).

Below, 3 compounds whose answers are already recorded.
1. CC1(C)CC[C@]2(C(=O)NCCCOCCOCCOCCCN)CC[C@]3(C)C(=CC[C@@H]4[C@@]5(C)C[C@@H](O)[C@H](O)C(C)(C)[C@@H]5CC[C@]43C)[C@@H]2C1 :: Criterion not met
2. CC1(C)CC[C@]2(C(=O)NCCCOCCOCCOCCCN)CC[C@]3(C)C(=CC[C@@H]4[C@@]5(C)CC[C@H](O)C(C)(C)[C@@H]5CC[C@]43C)[C@@H]2C1 :: Criterion not met
3. COCCOCCOCC(=O)O[C@@H]1C[C@]2(C)[C@H]3CC=C4[C@@H]5CC(C)(C)CC[C@]5(C(=O)O)CC[C@@]4(C)[C@]3(C)CC[C@H]2C(C)(C)[C@H]1OC(=O)COCCOCCOC :: Criterion not met

Consider the additional compound presented here.
### Prompt Activity strictly < 30% for this compound? COCCOCCOCC(=O)O[C@H]1CC[C@]2(C)[C@H]3CC=C4[C@@H]5CC(C)(C)CC[C@]5(C(=O)O)CC[C@@]4(C)[C@]3(C)CC[C@H]2C1(C)C
### Response Criterion met

----------
Activity for assorted compounds
- System: HepG2
- TEST METHOD NOTES: Induction of apoptosis in human HepG2 cells assessed as late apoptotic cells at cytotoxic IC50 after 72 hrs by Annexin V-FITC/propidium iodide staining based flow cytometry relative to control
- Type: functional
Value expressed in %; do not type the unit.

// worked examples, Activity included
1) COCCOCCOCC(=O)O[C@@H]1C[C@]2(C)[C@H]3CC=C4[C@@H]5CC(C)(C)CC[C@]5(C(=O)O)CC[C@@]4(C)[C@]3(C)CC[C@H]2C(C)(C)[C@H]1OC(=O)COCCOCCOC :: 29.1
2) CC1(C)CC[C@]2(C(=O)NCCCOCCOCCOCCCN)CC[C@]3(C)C(=CC[C@@H]4[C@@]5(C)C[C@@H](O)[C@H](O)C(C)(C)[C@@H]5CC[C@]43C)[C@@H]2C1 :: 33.05
3) COCCOCCOCC(=O)O[C@H]1CC[C@]2(C)[C@H]3CC=C4[C@@H]5CC(C)(C)CC[C@]5(C(=O)O)CC[C@@]4(C)[C@]3(C)CC[C@H]2C1(C)C :: 17.7
4) COCCOCCOCC(=O)O[C@@H]1C[C@]2(C)[C@H]3CC=C4[C@@H]5CC(C)(C)CC[C@]5(C(=O)OCc5ccccc5)CC[C@@]4(C)[C@]3(C)CC[C@H]2C(C)(C)[C@H]1OC(=O)COCCOCCOC :: 44.35

### Prompt Enter reported Activity observed with HepG2 for CC1(C)CC[C@]2(C(=O)NCCCOCCOCCOCCCN)CC[C@]3(C)C(=CC[C@@H]4[C@@]5(C)CC[C@H](O)C(C)(C)[C@@H]5CC[C@]43C)[C@@H]2C1
### Response 22.45

----------
Ratio IC50 for assorted compounds
- Test system: B16-F10
- TEST METHOD NOTES: Potency index, ratio of maslinic acid IC50 to compound IC50 for mouse B16F10 cells
- Format: functional
Reply briefly: the number, and no unit.

// worked examples, Ratio IC50 included
1. CC1(C)CC[C@]2(C(=O)OCc3ccccc3)CC[C@]3(C)C(=CC[C@@H]4[C@@]5(C)C[C@@H](O)[C@H](O)C(C)(C)[C@@H]5CC[C@]43C)[C@@H]2C1 [BENZYL MASLINATE] :: 1
2. CC1(C)CC[C@]2(C(=O)NCCCOCCOCCOCCCN)CC[C@]3(C)C(=CC[C@@H]4[C@@]5(C)C[C@@H](O)[C@H](O)C(C)(C)[C@@H]5CC[C@]43C)[C@@H]2C1 :: 3.2
3. COCCOCCOCC(=O)O[C@@H]1C[C@]2(C)[C@H]3CC=C4[C@@H]5CC(C)(C)CC[C@]5(C(=O)OCc5ccccc5)CC[C@@]4(C)[C@]3(C)CC[C@H]2C(C)(C)[C@H]1OC(=O)COCCOCCOC :: 1.7
4. CC(=O)O[C@@H]1C[C@]2(C)[C@H]3CC=C4[C@@H]5CC(C)(C)CC[C@]5(C(=O)O)CC[C@@]4(C)[C@]3(C)CC[C@H]2C(C)(C)[C@H]1OC(C)=O :: 0.8
5. CC1(C)CC[C@]2(C(=O)NCCCOCCOCCOCCCNC(=O)[C@]34CCC(C)(C)C[C@H]3C3=CC[C@@H]5[C@@]6(C)C[C@@H](O)[C@H](O)C(C)(C)[C@@H]6CC[C@@]5(C)[C@]3(C)CC4)CC[C@]3(C)C(=CC[C@@H]4[C@@]5(C)C[C@@H](O)[C@H](O)C(C)(C)[C@@H]5CC[C@]43C)[C@@H]2C1 :: 0.3
6. CC(=O)O[C@@H]1C[C@]2(C)[C@H]3CC=C4[C@@H]5CC(C)(C)CC[C@]5(C(=O)NCCCOCCOCCOCCCN)CC[C@@]4(C)[C@]3(C)CC[C@H]2C(C)(C)[C@H]1OC(C)=O :: 0.3
7. CC(=O)O[C@@H]1C[C@]2(C)[C@H]3CC=C4[C@@H]5CC(C)(C)CC[C@]5(C(=O)NCCCOCCOCCOCCCNC(=O)[C@]56CCC(C)(C)C[C@H]5C5=CC[C@@H]7[C@@]8(C)C[C@@H](OC(C)=O)[C@H](OC(C)=O)C(C)(C)[C@@H]8CC[C@@]7(C)[C@]5(C)CC6)CC[C@@]4(C)[C@]3(C)CC[C@H]2C(C)(C)[C@H]1OC(C)=O :: 0.3

### Prompt Give its Ratio IC50 value. Item: COCCOCCOCC(=O)O[C@@H]1C[C@]2(C)[C@H]3CC=C4[C@@H]5CC(C)(C)CC[C@]5(C(=O)O)CC[C@@]4(C)[C@]3(C)CC[C@H]2C(C)(C)[C@H]1OC(=O)COCCOCCOC
### Response 0.7

----------
- Test system: HepG2
- TEST METHOD NOTES: Cell cycle arrest in human HepG2 cells assessed as accumulation at G2/M phase at cytotoxic IC50 after 72 hrs by propidium iodide staining based flow cytometry (reference value: 8.47 +/- 2.55%)
- Type: functional
Activity for assorted compounds
Value expressed in %; do not type the unit.

// worked examples, Activity included
1) CC1(C)CC[C@]2(C(=O)NCCCOCCOCCOCCCN)CC[C@]3(C)C(=CC[C@@H]4[C@@]5(C)C[C@@H](O)[C@H](O)C(C)(C)[C@@H]5CC[C@]43C)[C@@H]2C1 :: 9.34
2) CC1(C)CC[C@]2(C(=O)NCCCOCCOCCOCCCN)CC[C@]3(C)C(=CC[C@@H]4[C@@]5(C)CC[C@H](O)C(C)(C)[C@@H]5CC[C@]43C)[C@@H]2C1 :: 0.34
3) COCCOCCOCC(=O)O[C@@H]1C[C@]2(C)[C@H]3CC=C4[C@@H]5CC(C)(C)CC[C@]5(C(=O)OCc5ccccc5)CC[C@@]4(C)[C@]3(C)CC[C@H]2C(C)(C)[C@H]1OC(=O)COCCOCCOC :: 15.04
4) COCCOCCOCC(=O)O[C@H]1CC[C@]2(C)[C@H]3CC=C4[C@@H]5CC(C)(C)CC[C@]5(C(=O)O)CC[C@@]4(C)[C@]3(C)CC[C@H]2C1(C)C :: 14.18

### Prompt Give its Activity value. Item: COCCOCCOCC(=O)O[C@@H]1C[C@]2(C)[C@H]3CC=C4[C@@H]5CC(C)(C)CC[C@]5(C(=O)O)CC[C@@]4(C)[C@]3(C)CC[C@H]2C(C)(C)[C@H]1OC(=O)COCCOCCOC
### Response 15.45
